Entries and their IC50
SUBJECT_OF_TEST: Fibroblast growth factor receptor 4 (Homo sapiens, UniProt P22455)
Sequence (P22455 whole entry): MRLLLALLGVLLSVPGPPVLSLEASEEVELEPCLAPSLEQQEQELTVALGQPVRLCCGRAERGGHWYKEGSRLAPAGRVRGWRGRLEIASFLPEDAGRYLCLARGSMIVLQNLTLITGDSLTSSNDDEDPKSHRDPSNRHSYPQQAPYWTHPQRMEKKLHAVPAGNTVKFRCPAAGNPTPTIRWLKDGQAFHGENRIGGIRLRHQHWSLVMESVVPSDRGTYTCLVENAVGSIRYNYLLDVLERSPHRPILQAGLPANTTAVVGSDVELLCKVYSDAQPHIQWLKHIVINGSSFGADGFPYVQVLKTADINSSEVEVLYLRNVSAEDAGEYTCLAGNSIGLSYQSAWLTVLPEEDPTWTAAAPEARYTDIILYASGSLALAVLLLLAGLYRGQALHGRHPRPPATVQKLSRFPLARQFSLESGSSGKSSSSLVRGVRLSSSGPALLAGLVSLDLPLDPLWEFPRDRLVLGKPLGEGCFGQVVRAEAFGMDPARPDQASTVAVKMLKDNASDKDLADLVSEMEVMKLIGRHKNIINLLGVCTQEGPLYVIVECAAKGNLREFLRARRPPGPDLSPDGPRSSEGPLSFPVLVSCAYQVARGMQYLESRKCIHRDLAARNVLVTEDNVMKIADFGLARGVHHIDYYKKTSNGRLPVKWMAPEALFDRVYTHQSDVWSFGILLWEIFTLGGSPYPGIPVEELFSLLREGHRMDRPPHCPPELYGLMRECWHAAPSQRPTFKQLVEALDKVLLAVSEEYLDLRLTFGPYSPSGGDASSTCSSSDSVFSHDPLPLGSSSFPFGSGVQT

SMILES_NOTATION	SUBJECT_OF_TEST	IC50
O=C(Nc1ccc(C(F)(F)F)cn1)c1cccc2cccnc12	Fibroblast growth factor receptor 4 (Homo sapiens, UniProt P22455)	> 10 µM
O=Cc1ccc2cccc(C(=O)Nc3ccc(C(F)(F)F)cc3)c2n1	Fibroblast growth factor receptor 4 (Homo sapiens, UniProt P22455)	> 10 µM

---

SUBJECT_OF_TEST: Fibroblast growth factor receptor 2 (Homo sapiens, UniProt P21802)
Sequence (P21802 whole entry): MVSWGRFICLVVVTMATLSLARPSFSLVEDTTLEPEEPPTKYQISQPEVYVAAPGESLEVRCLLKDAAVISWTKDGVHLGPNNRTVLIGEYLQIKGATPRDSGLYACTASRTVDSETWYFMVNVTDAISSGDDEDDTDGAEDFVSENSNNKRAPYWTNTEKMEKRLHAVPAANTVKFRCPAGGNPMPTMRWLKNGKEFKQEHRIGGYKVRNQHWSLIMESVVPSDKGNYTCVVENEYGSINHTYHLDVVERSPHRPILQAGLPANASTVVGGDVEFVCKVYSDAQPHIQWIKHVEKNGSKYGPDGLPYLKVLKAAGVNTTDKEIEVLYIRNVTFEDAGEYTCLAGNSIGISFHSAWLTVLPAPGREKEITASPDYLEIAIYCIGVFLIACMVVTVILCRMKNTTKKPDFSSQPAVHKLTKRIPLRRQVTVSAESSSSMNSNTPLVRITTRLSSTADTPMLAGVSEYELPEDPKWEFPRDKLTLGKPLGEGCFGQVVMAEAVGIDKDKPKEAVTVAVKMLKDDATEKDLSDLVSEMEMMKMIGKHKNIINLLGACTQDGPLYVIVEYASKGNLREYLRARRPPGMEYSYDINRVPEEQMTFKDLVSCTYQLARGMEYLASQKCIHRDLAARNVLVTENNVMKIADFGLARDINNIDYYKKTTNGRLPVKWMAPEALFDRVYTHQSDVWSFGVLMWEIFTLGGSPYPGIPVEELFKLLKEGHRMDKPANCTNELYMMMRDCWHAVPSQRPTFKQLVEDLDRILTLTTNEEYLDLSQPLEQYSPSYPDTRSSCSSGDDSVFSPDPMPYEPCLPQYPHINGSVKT
pIC50: −log10 of the molar value.

SMILES_NOTATION	pIC50
O=Cc1ccc2cccc(C(=O)Nc3ccc(C(F)(F)F)cn3)c2n1	< 5.00
